Target: HDAC1 enzyme (Homo sapiens, UniProt Q13547)
Construct: prepared by transducing full length HDAC1 and HDAC6 genes into Sf-9 insect cells; GST; purchased SignalChem; host or cells: Sf-9 insect cells
Sequence (Q13547 whole entry): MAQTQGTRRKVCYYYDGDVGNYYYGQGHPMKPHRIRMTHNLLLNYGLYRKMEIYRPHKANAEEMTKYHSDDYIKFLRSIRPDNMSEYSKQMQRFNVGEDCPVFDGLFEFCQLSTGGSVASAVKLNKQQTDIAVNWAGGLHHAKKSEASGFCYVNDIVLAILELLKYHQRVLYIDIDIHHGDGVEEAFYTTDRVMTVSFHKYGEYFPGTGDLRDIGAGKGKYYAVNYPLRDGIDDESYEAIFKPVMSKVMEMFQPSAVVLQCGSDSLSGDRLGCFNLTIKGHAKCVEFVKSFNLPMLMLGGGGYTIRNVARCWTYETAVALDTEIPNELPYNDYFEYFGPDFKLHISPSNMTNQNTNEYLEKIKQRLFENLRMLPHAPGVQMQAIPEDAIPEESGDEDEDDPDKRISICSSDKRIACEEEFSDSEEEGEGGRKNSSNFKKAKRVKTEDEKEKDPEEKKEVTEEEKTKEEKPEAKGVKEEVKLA
Test: HDAC1 enzyme inhibitory assay (HDAC-Glo I/II Assay kit)
Assay type: biochemical
Conditions: 1 μM test compound; 1 µM
endpoint-label: HDAC1 inhibitory rate (%) (1 μM)

                                   molecule                             tested_target  numeric_value
0  O=C(NC[C@H]1COCCN1C(=O)N1CCCCC1CO)c1ccc(-c2noc(C(F)(F)F)n2)cc1 (stereo partly shown) [Example 304]  HDAC1 enzyme (Homo sapiens, UniProt Q13547)              9
1  O=C(NCC1COCCN1C(=O)c1ccccc1)c1ccc(-c2noc(C(F)(F)F)n2)s1 (single isomer, unassigned) [Example 258]  HDAC1 enzyme (Homo sapiens, UniProt Q13547)             31
2  O=C(NC[C@H]1COCCN1C(=O)N1CCOCC1CO)c1ccc(-c2noc(C(F)(F)F)n2)cc1 (stereo partly shown) [Example 310]  HDAC1 enzyme (Homo sapiens, UniProt Q13547)              3
3  O=C(NC[C@H]1COCCN1C(=O)c1ccccc1N1CCOCC1)c1ccc(-c2noc(C(F)(F)F)n2)cc1 [Example 46]  HDAC1 enzyme (Homo sapiens, UniProt Q13547)             12
